System: CCRIS mutagenicity, Ames/micronucleus/aberration tests
Assay Details: CCRIS mutagenicity studies
Particulars: Test System: AMES SALMONELLA TYPHIMURIUM; Strain/Indicator: TA100; Metabolic Activation: NONE; Method: PREINCUBATION
Activity calls are given as the source filed them. How the calls were made is not given here.
Please reply with one of these outcomes: active, inactive

Illustrative cases are given below, each with its answer.
| Molecule | Class Name |
| --- | --- |
| CCCCC(CC)COCC1CO1 (stereo not drawn) | inactive |
| O=C(O)CNC(=O)c1ccc([N+](=O)[O-])cc1 | active |
| CC\C=C/C=C\C=C/C=C\C=C/C=C\OCC(O)CO (stereo not drawn) | active |
| CC(=O)C(C)O (stereo not drawn) | inactive |
| NCC(=O)O | inactive |
| Cc1ccc(NN=NCc2ccccc2)cc1 | active |

Alright, here's another molecule for you.
Exam item: Name the outcome recorded for "Cc1ccc(NO)cc1" in the assay.
Marked response: active

====

Tested on: CCRIS mutagenicity, Ames/micronucleus/aberration tests
Assay Details: CCRIS mutagenicity studies
Particulars: Test System: AMES SALMONELLA TYPHIMURIUM; Strain/Indicator: TA98; Metabolic Activation: RAT LIVER S-9, AROCLOR 1254; Method: STANDARD PLATE
Activity calls are given as the source filed them. No rule for the calls is given here.
Classes to choose from: active, inactive

Example entries and their recorded answers appear below.
| Compound | Class Name |
| --- | --- |
| c1ccc2c(c1)ncc1cnc3ccccc3c12 | inactive |
| COC1=CC(=O)c2c(nc(C)c3c2[nH]c2ccncc23)C1=O | active |
| CC1CCCO1 (configuration not stated) | inactive |
| Nc1ccc2[nH]c3ccccc3c2c1 | active |
| C[Si](C)(Cl)Cl | inactive |

Exam item: Hi, sorry to bother you, what did the test record for "NC(=O)N/N=C/c1ccc([N+](=O)[O-])o1" ?
Marked response: active

Exam item: Hello, I am checking results. What call was entered for "C[Si]1(C)O[Si](C)(C)O[Si](C)(C)O1" ?
Marked response: inactive

====

Test system: CCRIS mutagenicity, Ames/micronucleus/aberration tests
Assay Details: CCRIS mutagenicity studies
Particulars: Test System: AMES SALMONELLA TYPHIMURIUM; Strain/Indicator: TA98; Metabolic Activation: RAT, LIVER, S-9, AROCLOR 1254; Method: STANDARD PLATE
Calls of active or inactive are those of the source. The rule behind the calls is not given here.
Lab note: assign the record to one of active, inactive

Below, 5 compounds whose answers are already recorded.
| Compound | System Tested | Class Name |
| --- | --- | --- |
| COc1ccc(N)cc1 | CCRIS mutagenicity, Ames/micronucleus/aberration tests | inactive |
| C/C=C/C=C/C=O | CCRIS mutagenicity, Ames/micronucleus/aberration tests | inactive |
| CN=C1C=CC(=C(c2ccc(NC)cc2)c2ccc(N(C)C)cc2)C=C1 | CCRIS mutagenicity, Ames/micronucleus/aberration tests | inactive |
| Cc1c([N+](=O)[O-])c(C)c([N+](=O)[O-])c(C(C)(C)C)c1[N+](=O)[O-] | CCRIS mutagenicity, Ames/micronucleus/aberration tests | inactive |
| Cc1cc(O)c2c(O)c3c(O)cccc3cc2c1 | CCRIS mutagenicity, Ames/micronucleus/aberration tests | inactive |

Exam item: What outcome does the record of this test show for "CCc1cn([C@H]2C[C@H](O)[C@@H](CO)O2)c(=O)[nH]c1=O" ?
Marked response: inactive

Exam item: Status in this test for "C#C[C@]1(OC(=O)CCCCCC)CC[C@H]2[C@@H]3CCC4=CC(=O)CC[C@@H]4[C@H]3CC[C@@]21C" ?
Marked response: inactive

Exam item: Hi team, can someone confirm the assay call for "Cc1ccncc1" ?
Marked response: inactive

Exam item: Just curious, what result did "O=[N+]([O-])C1=Cc2c3ccc4ccccc4c3cc3cccc1c23" get here?
Marked response: active

Exam item: Please share the test call associated with "CCN(CC)c1ccc(N=Nc2c(Cl)cc([N+](=O)[O-])cc2Cl)cc1" .
Marked response: active

Exam item: I would be grateful if you could indicate the recorded call for "Cc1cnc2ccc3c(nc(N)n3C)c2n1" .
Marked response: active

Exam item: Entry "NCC(=O)O" : call = ?
Marked response: inactive

Exam item: What did the test return for "Cc1ccccc1NO" ?
Marked response: inactive

Exam item: Name the outcome recorded for "Cc1c2ccncc2c(C)c2c1[nH]c1ccccc12" in the assay.
Marked response: active

Exam item: What was the test verdict on "COc1c(Cl)ccc2oc3cc4c(c(OC)c3c(=O)c12)[C@@H]1C=CO[C@@H]1O4" ?
Marked response: active

Exam item: Please share the test call associated with "O=[N+]([O-])c1c2ccccc2c2ccc3cccc4ccc1c2c43" .
Marked response: active

Exam item: Which outcome was entered for the compound "O=S(=O)(O)c1ccc2ccc3cccc4ccc1c2c34" in this test?
Marked response: inactive

Exam item: How was "NCCNCCO" classified in this test?
Marked response: inactive

Exam item: Could you check what this test reported for "CC(=O)N(O)c1ccc(Br)cc1" ?
Marked response: inactive

====

Tested on: CCRIS mutagenicity, Ames/micronucleus/aberration tests
Assay Details: CCRIS mutagenicity studies
Particulars: Test System: AMES SALMONELLA TYPHIMURIUM; Strain/Indicator: TA102; Metabolic Activation: S-9; Method: STANDARD PLATE
The source made the active and inactive calls. How the calls were made is not given here.
Just give me one of these, please: active, inactive

| Compound | System Tested | Class Name |
| --- | --- | --- |
| COC(=O)c1ccc(C(=O)OC)cc1 | CCRIS mutagenicity, Ames/micronucleus/aberration tests | inactive |

Exam item: Could you kindly confirm the outcome this assay logged for "CCCCCCCC/C=C\CCCCCCCCCCCC(=O)NCCCCCCCCCCCCCCCCCC" ?
Marked response: inactive

Exam item: In this assay, the call recorded for "Cc1cc(O)c2c(c1)C(=O)c1cc(O)cc(O)c1C2=O" was what?
Marked response: active

Exam item: Tell me the recorded outcome of this test for CCCCCCC(O)CCCCCCCCCCC(=O)O (centres undefined) .
Marked response: inactive

====

Test system: CCRIS mutagenicity, Ames/micronucleus/aberration tests
Assay Details: CCRIS mutagenicity studies
Particulars: Test System: AMES SALMONELLA TYPHIMURIUM; Strain/Indicator: TA104; Metabolic Activation: NONE; Method: STANDARD PLATE
Active and inactive are the calls of the source. No rule for the calls is given here.
Write down one outcome, taken from yes = active, no = inactive

Recorded results for 3 compounds are shown here.
| Compound | System Tested | Class Name |
| --- | --- | --- |
| CN1CC[C@@]2(C)c3cc(O)ccc3N(C)[C@@H]12 | CCRIS mutagenicity, Ames/micronucleus/aberration tests | no |
| CCC(CCOCn1cc[n+](C)c1/C=N/O)[N+](=O)[O-] (configuration not stated) | CCRIS mutagenicity, Ames/micronucleus/aberration tests | no |
| O=[N+]([O-])c1cc2ccc3cccc4ccc(c1)c2c34 | CCRIS mutagenicity, Ames/micronucleus/aberration tests | yes |

Below: the item to evaluate.
Exam item: Hey, what did the test say about "O=C1NCCN1c1ncc([N+](=O)[O-])s1" ?
Marked response: no

====

Tested on: CCRIS mutagenicity, Ames/micronucleus/aberration tests
Assay Details: CCRIS mutagenicity studies
Particulars: Test System: AMES SALMONELLA TYPHIMURIUM; Strain/Indicator: TA100; Metabolic Activation: NONE; Method: PREINCUBATION
Activity calls are given as the source filed them. The rule behind the calls is not given here.

| Compound | mutagenic call |
| --- | --- |
| NS(=O)(=O)c1cc(C(=O)O)c(NCc2ccco2)cc1Cl | inactive; negative |
| COC(=O)C1=C(C)NC(COC(N)=O)=C(C(=O)OC(C)C)C1c1cccc(Cl)c1Cl (stereo not drawn) | inactive; negative |
| C1=CC2C3C=CC(C3)C2C1 (stereo not drawn) | inactive; negative |

====

System: CCRIS mutagenicity, Ames/micronucleus/aberration tests
Assay Details: CCRIS mutagenicity studies
Particulars: Test System: AMES SALMONELLA TYPHIMURIUM; Strain/Indicator: TA100; Metabolic Activation: RAT, LIVER, S-9, AROCLOR 1254; Method: STANDARD PLATE
Activity calls are given as the source filed them. The rule behind the calls is not given here.
Outcome Measure: mutagenic call

See these solved cases before continuing.
| Compound | Outcome Measure | Experimental Result |
| --- | --- | --- |
| Cc1cc(O)c2c(O)c3c(O)cccc3cc2c1 | mutagenic call | inactive; negative |
| COc1ccc(N(CCCl)CCCl)c2oc([N+](=O)[O-])cc12 | mutagenic call | active; positive |
| O=c1[nH]cnc2c1ncn2[C@H]1CC[C@@H](CO)O1 | mutagenic call | inactive; negative |
| OCc1c2ccccc2c2ccc3cccc4ccc1c2c43 | mutagenic call | active; positive |
| COc1c(Cl)cc2c(c1OC)N(C)[C@@H]1N3C(=O)[C@@]4(C)SS[C@@]3(C(=O)N4C)[C@H](O)[C@]21O | mutagenic call | inactive; negative |
| Fc1cccc2cc3c(cc12)-c1cccc2cccc-3c12 | mutagenic call | active; positive |
| OC1C=Cc2cc3c(cc2C1O)-c1cccc2cccc-3c12 (centres undefined) | mutagenic call | active; positive |
| OCC(O)C1CO1 (centres undefined) | mutagenic call | active; positive |
| Cc1ccccc1N=O | mutagenic call | active; positive |
| NCCNCCO | mutagenic call | inactive; negative |

Exam item: # lookup: mutagenic call of "Cc1c(C(=O)O)c(O)cc2c1C(=O)c1c(O)c([C@@H]3O[C@H](CO)[C@@H](O)[C@H](O)[C@H]3O)c(O)c(O)c1C2=O"
Marked response: inactive; negative

Exam item: Request the reported mutagenic call associated with "CCOc1cc(N=Nc2ccccc2)ccc1N=Nc1c(S(=O)(=O)O)cc2ccc(N)cc2c1O"
Marked response: active; positive

Exam item: What value of mutagenic call has been recorded for this entry: "C=C1CC/C=C(/C)CC[C@@H]2[C@@H]1CC2(C)C"
Marked response: inactive; negative

Exam item: Return reported mutagenic call; argument: "O=C1c2c(O)ccc([N+](=O)[O-])c2C(=O)c2c([N+](=O)[O-])ccc(O)c21"
Marked response: active; positive
